Measured values drawn from the supplement of paper PMC10567573 for this set.

B1: CLCN6 (parent)
chain: MAGCRGSLCCCCRWCCCCGERETR

Variants of: B1
TEST_SUMMARY: protein stability index of a GFP-peptide fusion (GPS, HEK-293T) (PSI 1-6); higher = more stable;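 also: lentivirally expressed fusions sorted by FACS into six bins by GFP to DsRed ratio, PSI derived from sequencing read proportions per bin multiplied by bin number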
APPLIED_CONDITIONS: c terminus: a fixed tail appended
Task for the reader: assign each of the following variants its reported protein stability index.

// for each variant in input: emit protein stability index
1. C16E
2. R13K
3. C4K
4. R21Y
5. C10M
6. L8F
7. W14Y
8. A2G

Found:
1. 2.22
2. 1.1
3. 2.35
4. 2.8
5. 1.28
6. 1.1
7. 1.55
8. 2.1

// for each variant in input: emit protein stability index
1. G19M
2. R13Q
3. C16V

Found:
2.34
1.79
2.02
